assay: yeast display, Sf9 membrane polyspecificity reagent, FACS + sequencing; frameworks hold sequencing errors
TEST_READOUT: polyreactivity (PSR sort gate)

Illustrative cases are given below, each with its answer.
[
  {
    "RESIDUES": "QVQLEESGGGFVQAGGSLRLSCAPSGTTFKSNAMGWYRQAPGKERELVAAINSGTSTYYADSVKGRFTISRDNAKNTVYLQMNSLKPEDTAVYYCSADGIWGEYYYSELGDYDYWGLGTQVTVSS",
    "polyreactivity (PSR sort gate)": "low polyreactivity"
  },
  {
    "RESIDUES": "QVQLVESGGGLVQAGGSLRLSCAASGSTFDTYAMGWYRQAPGKERELVATITNSVGNTYYADSVKGRFTISRDNAKNTVYLQMNSLKPEDTAVYYCAAETVYILAPGYYDYDYWGQGTQVTVSS",
    "polyreactivity (PSR sort gate)": "low polyreactivity"
  },
  {
    "RESIDUES": "QVQLVESGGGLVQAGGSLRLSCAASGRTFAAYAMGWYRPAPGKESELVAAISSSSGNTYYADSVKGRFTISRDNAKNTVYLQMNSLKPEDTAVYYCNAQRRFNANYWYDYWGQGTQVTVSS",
    "polyreactivity (PSR sort gate)": "high polyreactivity"
  },
  {
    "RESIDUES": "QVQLVESGGGLVHAGGSLRLSCAASGFIFDRYVMGWYRQAPGKERDLVAAINRSGGSTYYADSVKGRFTISRDNAKNTVYLQMNSLKPEDTAVYYCAADRAGSFTTMDYWGHGTQVTVSS",
    "polyreactivity (PSR sort gate)": "high polyreactivity"
  },
  {
    "RESIDUES": "QVQLVESGGGLVQAGGSLRLSCAASGSTGFYGMGWYRQAPGKERELVAAITFRSGSTYYADSVKGRFTISRDNAKNTVYLQMNSLKPEDTAVYYCAAYSFNNGHRYDYWGQGTQVTVSS",
    "polyreactivity (PSR sort gate)": "high polyreactivity"
  },
  {
    "RESIDUES": "QVQLVESGGGLVQAGGSLRLSCAASGSIFDIYAKGRSRQAPGKERELVAAISSGGSTTYADSVKGRFTISRDNAKNTVYFQMNCLTPEDTAVYYCATAYTPFAYLVTEMDYWGQGTQVTVLS",
    "polyreactivity (PSR sort gate)": "low polyreactivity"
  }
]

Summary for this sequence, "QVQLVESGGGLVQAGGSLRLSCAASGRTFLVNAMGWYRQAPGKERELVAVITRGGSTNYADSVKGRFTISRDNAKNTVYLQMNSLKPEDTAVYYCAAEAYYGLWMDYWGQGTQVTVSS" : polyreactivity (PSR sort gate) is low polyreactivity

For reference, reported polyreactivity (PSR sort gate) for "QVQLVESGGGLVQAGGSLRLSCAASGFTFPFYTMGWYRQAPGKERELVAAISRSGASTFYADSVKGRFTISRDNAKNTGYLQMNSLKPEDTAVYYCAGRRGYAPYEYWGQGTQVTVSS" stands at high polyreactivity

Documented polyreactivity (PSR sort gate) of "QVQLVESGGGLVQAGGSLRLSCAASGSTFGWYAMGWYRQAPGKERELVASITWDGGRTYYAHSVKGRFTISRDNAKNTVYLQMNSLKPEDTAVYYCAARGVSSPLNYWGQGSQVTVSS" : low polyreactivity

Short answer for "QVQLVESGGGLVQAGGSLRLSCAASGFISAYYAMGWYRQAPGKEMELVAAISWNGGRTFYADSVKGRFTISRDNAKNTVYLQMNSLKPEDTAVYYCAARYNGYANPYYYWGQGTQVTVSS" : polyreactivity (PSR sort gate) was high polyreactivity

GET /value?item= "QVQLGESGGGLVQAGGSLRLSCAASGSTFPRYVMGWYRQAPGKERELVAAISSSSGRTFYADSVKGRFTISRDNAKNTVYLQMNSLKPEDTAVYYCAARTSFNVHYWGQGTQVTVSS" &field=polyreactivity (PSR sort gate) returns high polyreactivity

# polyreactivity (PSR sort gate) (sequence: "QVQLVESGGGLVQAGGSLRLSCAASGSIFYFYAMGWYRQAPGKERELVAASRFTGGTTYYADSVKGRFTISRDNAKNTVYLQMNSLKPEDTAVYYCAKQTSYWSRGYDYWGQGTQVTVSS" ) is low polyreactivity

// recorded polyreactivity (PSR sort gate) for "QVQLEESGGGLVQAGGSLRLSCAASGITFNQYVMGWYRQAPGKEMELVAAISRSGATTYYADSVKGRFTISRDNAKNTVYLQMNSLKPEDTAVYYCAVRGSVSYTRYGYWGQGTQVTVSS" : high polyreactivity

The measured polyreactivity (PSR sort gate) associated with "QFQLVESGGGLVQAGGSLRLSCAASGSIFPPYVMGCYRQAPGKERELVATIDSGGSTYYADSVKGRFTISRDNAKNPVYLQINSLKPEDTAVYYCAARQVSVSVHQYGYWGQGTQVTVST" reads low polyreactivity

# polyreactivity (PSR sort gate) of "QVQLVESGGGLVQAGGSLRLRCAASGITFRYYAMGWYRQAPGQERELVAAITRSGSTTYADSVKGRFTISRDNAKNTVYLQLNSLKPEDTAVYYCAVDYYYLTGGVDYWGQGTQVTVSS" = low polyreactivity

Entry under test: "QVQLVESGGGLVQAGGSLRLSCAASGSTFENYVMGWDRQAPGKERELVAAISRGGGSTHYADSVKGRFTISRDNANNTVYLQMNSLKPEDTAVYYCAARYQPYVGSRSISTGIYYYWGQGTQVTVSS" . Its polyreactivity (PSR sort gate) was low polyreactivity

Input "QVQLVESGGGLVQAGGSLRLSCAASGLTFEYYAMGWYRQAPGKERELVAAISRRGSTYYADSVKGRFTISRDNAKNTVYLQMNSLKPEDTAVYYCNAVYYWYKGDYWGQGTQVTVSS" . Output polyreactivity (PSR sort gate): high polyreactivity

// sample "QVQLVESGGGLVQAGGSLRLTCAASGRIFIYNTMGWYRQAPGTERELVATISSGGRTYYADSVKGRFTISRDNAKNTVYFQMNSLKPEDTAVYYCNARRRYYSVWRGWDNELDYWGQGTQVTVSS" , its polyreactivity (PSR sort gate) was high polyreactivity

# polyreactivity (PSR sort gate) of "QVQLVESGGGLVQAGGSLRLSCAASGFTFANPMGWYRQAPGKERELVAAISSGGGSTYYADSVKGRFTISRDNAKNTVYLQMNSLKPEDTAVYYCAAGYGTLDWWEDYWGQGTQVTVSS" = high polyreactivity

Noted for "QVQLVDSGGGLVQAGGSLRLSCAASGRIFYAYDMGWYRQAPGKERELVADITSSGSTNYADSVKGRFTISRDNAKNTVYLQMNSLKPEDTAVYYCNTEPSGYESGYWGQGTQVTVSS" : its polyreactivity (PSR sort gate) reads low polyreactivity

According to the records, this sequence "QVQLVESGGGLVQAGGSLRLSCAASGSTFLSYAMGWYRQAPGKERELVAAITSGGRTYYADSVKGRFTISRDNAKNTVYLQMNSLKPEDTAVYYCAAVTGRFGYWGQGTQVTVSS" displays polyreactivity (PSR sort gate) of high polyreactivity
